Biological target: T1, Recombinant Human DLL4 (delta-like protein 4) (human, UniProt Q9NR61 27-524)
T1 construct: Bought recombinant human DLL4 (R&D Systems Cat#1506-D4/CF); also called rHuman DLL4; Delta-like 4
Assay: ELISA, DLL4 coated on plate, Fab at 25 nM (first 25 nM row)
READOUT_KIND: ELISA signal
I'd appreciate a reply containing only the number, no unit.

Example binders with recorded ELISA signal:
BINDER	ELISA signal
Fab VH1-46_IGHD6-6*01_IGHJ1*01 S102A/S103P/S104F/H111F & L6_IGKJ1*01 S28H (Fab, V domains shown, Tested as a Fab; also called APFF & S28H) VH: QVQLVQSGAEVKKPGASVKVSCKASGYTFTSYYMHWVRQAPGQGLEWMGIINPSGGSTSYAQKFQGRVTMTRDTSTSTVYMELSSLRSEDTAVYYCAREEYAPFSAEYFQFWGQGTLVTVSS VL: EIVLTQSPATLSLSPGERATLSCRASQHVSSYLAWYQQKPGQAPRLLIYDASNRATGIPARFSGSGSGTDFTLTISSLEPEDFAVYYCQQRSNWPPWTFGQGTKVEIKR	0.03
Fab VH1-46_IGHD6-6*01_IGHJ1*01 S102A/S103P/S104F/H111F & L6_IGKJ1*01 S28N (Fab, V domains shown, Tested as a Fab; also called APFF & S28N) VH: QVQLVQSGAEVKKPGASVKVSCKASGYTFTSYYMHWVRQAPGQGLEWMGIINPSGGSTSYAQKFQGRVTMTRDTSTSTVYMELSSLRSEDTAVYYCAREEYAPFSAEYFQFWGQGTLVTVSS VL: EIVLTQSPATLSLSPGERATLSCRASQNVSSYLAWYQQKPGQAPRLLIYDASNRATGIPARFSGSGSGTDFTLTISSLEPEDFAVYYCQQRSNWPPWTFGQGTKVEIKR	0.04
Fab VH1-46_IGHD6-6*01_IGHJ1*01 S102A/S103P/S104F/H111F & L6_IGKJ1*01 S31H (Fab, V domains shown, Tested as a Fab; also called APFF & S31H) VH: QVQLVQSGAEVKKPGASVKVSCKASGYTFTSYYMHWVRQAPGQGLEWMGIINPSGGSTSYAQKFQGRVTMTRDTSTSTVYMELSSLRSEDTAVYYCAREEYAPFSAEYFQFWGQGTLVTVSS VL: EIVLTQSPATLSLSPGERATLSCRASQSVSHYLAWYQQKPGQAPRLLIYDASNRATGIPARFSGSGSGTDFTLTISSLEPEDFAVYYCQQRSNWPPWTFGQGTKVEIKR	0.03

Read the next record carefully.
**Query** Name the reported ELISA signal value associated with the binder Fab VH1-46_IGHD6-6*01_IGHJ1*01 S102A/S103P/S104F/H111F & L6_IGKJ1*01 S30D (Fab, V domains shown, Tested as a Fab; also called APFF & S30D) VH: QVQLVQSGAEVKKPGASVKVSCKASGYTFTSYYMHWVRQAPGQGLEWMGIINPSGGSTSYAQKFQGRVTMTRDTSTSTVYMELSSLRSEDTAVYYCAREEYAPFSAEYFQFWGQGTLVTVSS VL: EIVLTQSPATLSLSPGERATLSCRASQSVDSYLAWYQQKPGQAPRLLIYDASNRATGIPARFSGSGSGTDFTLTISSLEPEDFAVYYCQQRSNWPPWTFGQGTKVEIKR
**Result** 0.03
